Tested on: NCI/ADR-RES
Experiment: NCI tumour cell line growth inhibition, 48 h
Calls of active or inactive are those of the source. Rule as the data show it: active = GI50 up to about 1.1 µM and inactive = higher.
Outcomes: Yes = active, No = inactive

molecule=COc1cc2oc(=O)ccc2cc1C(=O)CC(C)C category=No
molecule=O=C1c2cc([N+](=O)[O-])sc2C(=O)c2ccsc21 category=Yes
molecule=N/C(=N\c1ccc(Cl)cc1)c1ccccc1N category=No
molecule=CC(=O)OC[C@@H](OC(C)=O)[C@@H](OC(C)=O)[C@H]1OC[C@@H]2C[C@H]([C@H]1OC(C)=O)N(Cc1ccccc1)O2 category=No
molecule=COCc1cc2c(s1)C(=O)C1=C(C2=O)C2(C=C(Br)C(=O)C(Br)=C2)CCN1 category=No
molecule=CN(O)C(=O)c1cccc(Cl)c1 category=No
molecule="Cc1nc2ccccc2n1COC(Cn1ccnc1)c1ccc(Cl)cc1Cl (stereo not drawn)" category=No
molecule="CC(C)Cc1ccc(C(C)CC2=CCC(CN(C)C)C2=O)cc1 (stereo not drawn)" category=No

###

Attribute: GI50
Tested on: CAKI-1
Assay: NCI tumour cell line growth inhibition, 48 h
Calls of active or inactive are those of the source. No stated cut-off is given here; in the data, active = GI50 up to about 1.1 µM and inactive = higher.
measurement_name: GI50

molecule=C1=CN2C[n+]3cccc(OCc4ccccc4)c3N=C2C(OCc2ccccc2)=C1 test_result="22 µM (inactive)"
molecule=O=c1[nH]c2nc3ccccc3c(=O)n2/c1=C/c1ccc(O)cc1 test_result="43.3 µM (inactive)"
molecule=COc1ccc(/C=C/c2cc(O)cc(OC)c2)cc1 test_result="> 100 µM (inactive)"
molecule=COc1ccc(OC)c2c1C(=O)C(Cl)=C(Cl)C2=O test_result="2.56 µM (inactive)"
molecule=N#C/C(C(=O)Nc1ccccc1)=C(/N)N1CCOCC1 test_result="> 100 µM (inactive)"
molecule="CCOC(=O)C1C(C(C)C)C2(C#N)C(=N)OC1(C)C2(C#N)C#N (stereo unspecified)" test_result="2.72 µM (inactive)"
molecule="CCCCN1C(=O)CC2[C@@H]3CCc4cc(OC)ccc4C3CC[C@]2(C)C1=O (stereo partly specified)" test_result="> 10 µM (inactive)"
molecule=O=C(NCCCNC(=O)c1ccc2c(O)c(O)ccc2c1)c1ccc2c(O)c(O)ccc2c1 test_result="> 63 µM (inactive)"
molecule=COC(=O)CNC(=O)CCSc1nnc(COc2ccc(Cl)cc2)n1-c1ccccc1 test_result="12 µM (inactive)"
molecule=CN(C)c1n/c(=N/c2ccc3c(c2)OCO3)ss1 test_result="97.7 µM (inactive)"
molecule="CCOC(=O)C12CCC(c3c(C)cccc3C)(O1)C(C(=O)OC)=C2C(=O)OC (stereo unspecified)" test_result="> 5.6 µM (inactive)"

###

Test system: HT-29
Assay: NCI tumour cell line growth inhibition, 48 h
Calls of active or inactive are those of the source. Cut-off read from the data, not from the text of the source: active = GI50 up to about 1.1 µM and inactive = higher.
Outcomes: active, inactive

compound="CC1CC2C3CC(F)C4=CC(=O)C=CC4(C)C3(F)C(O)CC2(C)C1(O)C(=O)COC(=O)C(C)(C)C (configuration not stated)" measured_on=HT-29 category=inactive
compound=Cc1c(C)c([N+](=O)[O-])c2c(c1N)C(=O)c1ccccc1C2=O measured_on=HT-29 category=inactive
compound="CC(=O)OC1CC2C(C)(C)OC(=O)CC(OC(C)=O)[C@]2(C)C2CCC3(C)C(=CCC3[C@H]3COC(=O)C3)[C@]12C (some centres not stated)" measured_on=HT-29 category=inactive
compound=CCN(CC)CCNc1ccc2ncn3c4ccc(O)cc4c(=O)c1c23 measured_on=HT-29 category=active
compound=C(/C=N/N=C1NCCCN1)=N\N=C1NCCCN1 measured_on=HT-29 category=inactive
compound="CC(CN(C)C)C(=O)c1ccccc1 (configuration not stated)" measured_on=HT-29 category=inactive
compound=O=c1oc2ccccc2cc1P(=O)(O)O measured_on=HT-29 category=inactive

###

System: LXFL 529
Test: NCI tumour cell line growth inhibition, 48 h
Counter-ions that a name gives are not always drawn. Active and inactive are the calls of the source. No stated cut-off is given here; in the data, active = GI50 up to about 1.1 µM and inactive = higher.
Outcomes: active, inactive

compound=COc1ccc([C@@H]2CC(=O)NCCCNCCCCNCCCN2)cc1 measured_on="LXFL 529" category=inactive
compound=c1ccc(CNn2nnc3ccccc32)cc1 measured_on="LXFL 529" category=inactive
compound=Cc1nc2c(o1)/C(=N\c1ccccc1)c1ccccc1C2=O measured_on="LXFL 529" category=inactive
compound="CC1=CCC(O)C=CC(C)C(O)C(C)C=C(C)C(=O)c2c(O)c(C)cc3c2C(=O)C(N)=C(NC(=O)/C=C\\C=C/C=CC(C)C(O)CC1=O)C3=O (stereo not given)" measured_on="LXFL 529" category=inactive
compound=O=P(CN1CCOCC1)(c1ccccc1)c1ccccc1 measured_on="LXFL 529" category=inactive
compound="O=[N+]([O-])c1cccc(C2=NOC(C3CCCCC3)C2)c1 (stereo not given)" measured_on="LXFL 529" category=inactive
compound="NC(=O)C12CCC1C1CCCCC12N1CCOCC1 (stereo not given)" measured_on="LXFL 529" category=inactive
compound="CC1(C)CC2(S(=O)(=O)c3ccccc3)ON1CC2S(=O)(=O)c1ccccc1 (stereo not given)" measured_on="LXFL 529" category=inactive
compound=COc1ccc(-c2cnoc2-c2ccc(OC)c(OC)c2)cc1OC measured_on="LXFL 529" category=inactive
compound=Cc1c(C)c([N+](=O)[O-])c2c(c1N)C(=O)c1ccccc1C2=O measured_on="LXFL 529" category=inactive
compound=COc1cc(OC)c(SSCCCCS(=O)O)c(OC)c1 measured_on="LXFL 529" category=inactive
compound=O=C(/C=C(\O)C(=O)O)/C=C(\O)c1ccc(Cl)cc1 measured_on="LXFL 529" category=inactive
compound="C=C(NC(=O)C(=C)NC(=O)c1csc(C2=NC3c4csc(n4)C4NC(=O)c5csc(n5)C(C(C)(O)C(C)O)NC(=O)C5CSC(=N5)/C(=C/C)NC(=O)C(C(C)O)NC(=O)c5csc(n5)C3(CC2)NC(=O)C(C)NC(=O)C(=C)NC(=O)C(C)NC(=O)C(C(C)CC)NC2C=Cc3c(C(C)O)cc(nc3C2O)C(=O)OC4C)n1)C(N)=O (stereo not given)" measured_on="LXFL 529" category=active
compound="Cc1ccc(NC(=O)CC2C(=O)Nc3ccccc3[S+]2[O-])cc1C (stereo not given)" measured_on="LXFL 529" category=inactive
compound=C=C1CC[C@@H]2C(C)(C)CCC[C@@]2(C)[C@@H]1Cc1cc(O)ccc1O measured_on="LXFL 529" category=inactive
compound="Nc1ccc2cc3ccc(N)cc3nc2c1 [PROFLAVINE SULFATE]" measured_on="LXFL 529" category=active
compound="O=C(CCN1CCCCC1)N1CCc2c([nH]c3ccccc23)C1c1cccnc1 (stereo not given)" measured_on="LXFL 529" category=inactive
compound="CC1c2[nH]c3ccccc3c2CCN1O (stereo not given)" measured_on="LXFL 529" category=inactive
compound=O=C1c2ccccc2C(=O)c2sc(Nc3cccc(Cl)c3)nc21 measured_on="LXFL 529" category=inactive
compound=O=S(O)CCCCCSSc1ccc(Cl)cc1 measured_on="LXFL 529" category=inactive

###

Tested on: T47D
Experiment: NCI tumour cell line growth inhibition, 48 h
Structures can show the parent of a compound that is named as a salt. Active and inactive are the calls of the source. Cut-off read from the data, not from the text of the source: active = GI50 up to about 1.1 µM and inactive = higher.
Outcomes: active, inactive

molecule=Nc1c(-c2cccc3ccccc23)c2ccc([N+](=O)[O-])cc2c(=O)n1-c1nc2ccccc2s1 category=inactive
molecule=COc1cc2c(cc1[N+](=O)[O-])C(=O)C(Br)(Br)CCC2 category=inactive
molecule="CC1(C)OC2CN(C(=O)OCc3ccccc3)C(CO)C2O1 (configuration not stated)" category=inactive
molecule=CCOC(=O)c1c(N2CCOCC2)[nH]c(=O)c(C(c2ccc(OC)cc2)c2c(O)c(C(=O)OCC)c(N3CCOCC3)[nH]c2=O)c1O category=inactive
molecule="CCC1(O)CC2CC(=O)OC2C1O (configuration not stated)" category=inactive
molecule="NP1(Oc2ccc(F)cc2)=NP(N)(Oc2ccc(F)cc2)=NP(Oc2ccc(F)cc2)(Oc2ccc(F)cc2)=N1 (configuration not stated)" category=inactive
molecule=[N-]=[N+]=Nc1cc(=O)n2c3c(cccc13)CCC2 category=inactive
molecule="Nc1ccc2cc3ccc(N)cc3nc2c1 [PROFLAVINE SULFATE]" category=inactive
molecule=ON=C(CC(O)(C(F)(F)Cl)C(F)(F)Cl)CC(O)(C(F)(F)Cl)C(F)(F)Cl category=inactive
molecule=O=C(/C=C/c1ccc(/C=C/C(=O)c2ccc(O)cc2)cc1)c1ccc(O)cc1 category=inactive
molecule=Nc1nc(Cl)cc(Nc2ccc3c(c2)CCC3)n1 category=inactive
molecule=O=C1CSC2(CCN(CCCN3c4ccccc4Sc4ccc(Cl)cc43)CC2)N1 category=inactive
molecule=CN(C)c1nncc2[nH]nnc12 category=inactive
molecule=O=C(COc1ccccc1)N(C(=O)N1CCN(c2ccccc2)CC1)S(=O)(=O)c1ccccc1 category=inactive
molecule=Nc1c(Cl)c([N+](=O)[O-])cc2c1OCCCCO2 category=inactive
molecule="Cc1nc2ccccc2n1COC(Cn1ccnc1)c1ccc(Cl)cc1Cl (configuration not stated)" category=inactive
molecule=COC(=O)c1ccc(-n2c(C)nc(=O)c(-c3ccccc3)c2C)cc1 category=inactive
molecule=Cc1cc2c3ccccc3[nH]c2c2ccnc(C)c12 category=inactive
molecule=CN(C)CCNC(=O)c1cccc(NC(=O)c2ccccc2)c1[N+](=O)[O-] category=inactive
molecule=N#Cc1sc2c(c1OC(=O)c1ccco1)c(=O)n(-c1ccccc1)c(=S)n2-c1ccccc1 category=inactive
molecule=O=c1[nH]c2ccc(C(F)(F)F)cc2nc1-c1ccccc1 category=inactive
molecule=Cc1c2c(cc3c1C(=O)C(O)=C([C@@H](C)CO)C3=O)C(C)(C)CCC2 category=inactive
molecule=CC1=NN(c2nc(N)nc(/C(C#N)=C\c3cccc([N+](=O)[O-])c3)n2)C(C)(C)C1 category=inactive
molecule="O=C(c1ccccc1)c1ccc2c(c1)nc1n2C(c2c(F)cccc2F)SC1 (configuration not stated)" category=inactive
molecule=Cc1ccc(S(=O)(=O)N2CCC(=O)c3cc(Br)ccc32)cc1 category=inactive
molecule="CCCCN1C(=O)CC2[C@@H]3CCc4cc(OC)ccc4C3CC[C@]2(C)C1=O (some centres not stated)" category=inactive
molecule=Cc1ccc(S(=O)(=O)c2ccsc2NC(=O)C(F)(F)F)cc1 category=inactive
molecule="CC(=O)O[C@H]1C(=O)[C@@]2(C)[C@H]([C@H](OC(=O)c3ccccc3)[C@]3(O)C[C@H](OC(=O)[C@H](O)[C@@H](NC(=O)CC(C)(C)C)c4ccccc4)C(C)=C1C3(C)C)C1(OC(C)=O)CO[C@@H]1C[C@@H]2O (some centres not stated)" category=active
molecule=Cc1ccc(Nc2cc(=O)[nH]c(=S)[nH]2)cc1 category=inactive
molecule="O=[N+]([O-])c1ccc2c(c1)N=C1OC(c3c[nH]c4ccc(COc5ccccc5)cc34)C(O)=C1N2 (configuration not stated)" category=inactive
molecule=COC(=O)c1cc2ccc(OC(C)=O)c(OC(C)=O)c2cn1 category=inactive
molecule="N=C(N)C1CN(CCCCCCCCCCN2CC(C(=N)N)C(O)=NC2=O)C(=O)N=C1O (configuration not stated)" category=inactive
molecule=CC(C)c1nc2cc(C(F)(F)F)ccc2[nH]c1=O category=inactive
molecule="CN1C(=O)C23CCCC2CC1(c1ccccc1)S3 (configuration not stated)" category=inactive
molecule=Cc1ccc2c(n1)C(=O)c1ccccc1C2=O category=inactive
molecule=O=C(O)c1cc(CCc2cc(O)ccc2O)ccc1O category=inactive
molecule=Oc1c(Cl)c(Cl)c(O)c(-c2cnc(-c3ncc(-c4c(O)c(Cl)c(Cl)c(O)c4Cl)s3)s2)c1Cl category=inactive
molecule="COc1ccc(CC(N)c2ccc(OC)cc2)cc1 (configuration not stated)" category=inactive
molecule=O=c1oc2ccccc2cc1P(=O)(O)O category=inactive
molecule=CCSc1nc(N2CCOCC2)c2cn[nH]c2n1 category=inactive
molecule=CCCCc1ccc(Nc2nc(O)c3ncn(COCCO)c3n2)cc1 category=inactive
molecule=COCN1C(=O)[C@@H]2CCCN2C(=O)c2cc(Cl)ccc21 category=inactive
